- Tested on: Saccharomyces cerevisiae
- experimental_details: protein stability index of tFT-peptide fusion (C-terminal peptide) (PSI (0-1 scale)); higher = more stable (slower turnover)
- condition_notes: genetic background: wild type; temperature: 30 C
Reported protein stability index maps to class as: low: < 0.6; medium: ≥ 0.6 and < 0.7; high: ≥ 0.7

Consider the following illustrative entries.
ALQLLNPSLLKY | high
KQKIKTDKYKKD | medium
RPRRARLPNFLA | low

input: Please let me know in which category the item `PTPPTPTISPTP` belongs.
output: medium

input: Please let me know in which category the item `CPFPSPTPPPPC` belongs.
output: high

input: Please let me know in which category the item `CIFLLMAILSLA` belongs.
output: low

input: Please let me know in which category the item `PPPPRPLPLPTT` belongs.
output: high

input: Please let me know in which category the item `AMFFAFSRSLMS` belongs.
output: medium

input: Please let me know in which category the item `RIETHNQKSPGL` belongs.
output: high

====

- Tested on: Saccharomyces cerevisiae
- experimental_details: protein stability index of tFT-peptide fusion (C-terminal peptide) (PSI (0-1 scale)); higher = more stable (slower turnover)
- condition_notes: genetic background: wild type; temperature: 30 C
So basically: protein stability index at 0.7 or higher? That is satisfied. Lower than 0.7? That is not satisfied.

Consider the following illustrative entries.
YSWMQPESGWNP [YER188W C-terminal 12 aa] | satisfied
QKKEEAKHKASE [UFD2 C-terminal 12 aa] | satisfied
WHKSQLEDMNGY [YHL012W C-terminal 12 aa] | not satisfied
LDNIERDANDLS [LAM4 C-terminal 12 aa] | not satisfied
ADKELSFEINVK [BRR2 C-terminal 12 aa] | satisfied

input: Is the recorded value of protein stability index equal to or greater than 0.7 for this sequence? SLRSFFVKQKVL [ERP6 C-terminal 12 aa]
output: not satisfied

input: Is the recorded value of protein stability index equal to or greater than 0.7 for this sequence? FIHDVFFVYFRF [YDL094C C-terminal 12 aa]
output: not satisfied

input: Is the recorded value of protein stability index equal to or greater than 0.7 for this sequence? NIFYQLLLTVNY [YBR013C C-terminal 12 aa]
output: not satisfied

====

- Tested on: Saccharomyces cerevisiae
- experimental_details: protein stability index of tFT-peptide fusion (C-terminal peptide) (PSI (0-1 scale)); higher = more stable (slower turnover)
- condition_notes: genetic background: wild type; temperature: 30 C
value_type: protein stability index
Returns: the value as a bare number; no unit string appended.

Please review the following examples before continuing.
PAAPPLGFTRTD | 0.7
PPLRPAPPPPLS | 0.7
WSAPHPVCSPPS | 0.697

// next entry
input: Lab note: need protein stability index for `VCNFQIGGDRGV` on Saccharomyces cerevisiae, anyone have it?
output: 0.71

====

protein stability index values, listed per item
- System: Saccharomyces cerevisiae
- experimental_details: protein stability index of tFT-peptide fusion (C-terminal peptide) (PSI (0-1 scale)); higher = more stable (slower turnover)
- condition_notes: genetic background: das1 deletion; temperature: 30 C
Returns: the value as a bare number; no unit string appended.

Please review the following examples before continuing.
NYAPHLSDATTS [MAC1 C-terminal 12 aa] | 0.694
NIHQTDYIYARL [BUD16 C-terminal 12 aa] | 0.798
DDEEATAMFKLE [IES1 C-terminal 12 aa] | 0.715

input: Given the entry LFQPIIVKPLRS [YHR007C-A C-terminal 12 aa] , report its measured protein stability index.
output: 0.599

input: Given the entry IHRSVSELSRLH [MBB1 C-terminal 12 aa] , report its measured protein stability index.
output: 0.705

input: Given the entry TDNTVYQKFLKY [ILV1 C-terminal 12 aa] , report its measured protein stability index.
output: 0.674

====

protein stability index values, listed per item
- Test system: Saccharomyces cerevisiae
- experimental_details: protein stability index of tFT-peptide fusion (C-terminal peptide) (PSI (0-1 scale)); higher = more stable (slower turnover)
- condition_notes: genetic background: wild type; temperature: 30 C
Returns: the value as a bare number; no unit string appended.

IMGRRGEDGVID | 0.682

input: Given the entry `SLMRRFRGQWRV` , report its measured protein stability index.
output: 0.71

input: Given the entry `HLPPFLRPPFPL` , report its measured protein stability index.
output: 0.686

input: Given the entry `PLLPFRYTRSGT` , report its measured protein stability index.
output: 0.68

input: Given the entry `SFPPFSPLYSPP` , report its measured protein stability index.
output: 0.717

input: Given the entry `VSSVVTTSAIKR` , report its measured protein stability index.
output: 0.715

====

- System: Saccharomyces cerevisiae
- experimental_details: protein stability index of tFT-peptide fusion (C-terminal peptide) (PSI (0-1 scale)); higher = more stable (slower turnover)
- condition_notes: genetic background: wild type; temperature: 30 C
Reported protein stability index maps to class as: low class (below 0.6), middle class (0.6 to below 0.7), high class (0.7 or more)

Consider the following illustrative entries.
ELRLYFPRLFQF | low class
IFCCFFPRFPVF | middle class

Now turn to the next sequence.
input: Please let me know in which category the item `LCLLHCSICISF` belongs.
output: low class

====

- System: Saccharomyces cerevisiae
- experimental_details: protein stability index of tFT-peptide fusion (C-terminal peptide) (PSI (0-1 scale)); higher = more stable (slower turnover)
- condition_notes: genetic background: das1 deletion; temperature: 30 C
Reported protein stability index maps to class as: bottom bin: < 0.3; middle bin: ≥ 0.3 and < 0.5; top bin: ≥ 0.5

Consider the following illustrative entries.
YFRKDYRKMAQH | top bin
IREYSIRIKRLQ | top bin
VARRRQQWMRGS | top bin
RLWLPLSLVLWV | middle bin
GLCFRVCIWVFV | bottom bin

input: Please let me know in which category the item `FLIFGMVDFAVV` belongs.
output: bottom bin

input: Please let me know in which category the item `TCRLIQLTVTLH` belongs.
output: bottom bin

====

- Tested on: Saccharomyces cerevisiae
- experimental_details: protein stability index of tFT-peptide fusion (C-terminal peptide) (PSI (0-1 scale)); higher = more stable (slower turnover)
- condition_notes: genetic background: wild type; temperature: 30 C
value_type: protein stability index
Returns: the value as a bare number; no unit string appended.

Please review the following examples before continuing.
PPLPPLPVPPTL | 0.738
GSRRVSFFLRFG | 0.647

// next entry
input: Given the entry `LPLASIYQLRSN` , report its measured protein stability index.
output: 0.713

====

- Tested on: Saccharomyces cerevisiae
- experimental_details: protein stability index of tFT-peptide fusion (C-terminal peptide) (PSI (0-1 scale)); higher = more stable (slower turnover)
- condition_notes: genetic background: wild type; temperature: 30 C
value_type: protein stability index
Returns: the value as a bare number; no unit string appended.

input: Given the entry GYQRGLDEFNKY [MRX18 C-terminal 12 aa] , report its measured protein stability index.
output: 0.681

input: Given the entry LTSMSARIAFDN [AAD14 C-terminal 12 aa] , report its measured protein stability index.
output: 0.699

input: Given the entry SSDEEENEKELP [PWP2 C-terminal 12 aa] , report its measured protein stability index.
output: 0.705

input: Given the entry VVGEDEKDDFFE [EFG1 C-terminal 12 aa] , report its measured protein stability index.
output: 0.691

input: Given the entry DHLHNLAQYWRT [VPS34 C-terminal 12 aa] , report its measured protein stability index.
output: 0.703

input: Given the entry ETIWTEWHNLKK [DIG2 C-terminal 12 aa] , report its measured protein stability index.
output: 0.686

input: Given the entry VDHLTDPDIYIP [BUB2 C-terminal 12 aa] , report its measured protein stability index.
output: 0.713

====

- Test system: Saccharomyces cerevisiae
- experimental_details: protein stability index of tFT-peptide fusion (C-terminal peptide) (PSI (0-1 scale)); higher = more stable (slower turnover)
- condition_notes: genetic background: wild type; temperature: 30 C
value_type: protein stability index
Returns: the value as a bare number; no unit string appended.

Please review the following examples before continuing.
LWVGGKRREVMG | 0.706
KNSNIDKMIRKE | 0.697
GAVGSPVEFGGR | 0.688
PPLPPPQDPRLP | 0.7

// next entry
input: Lab note: need protein stability index for `LRPLKVSGGGRG` on Saccharomyces cerevisiae, anyone have it?
output: 0.685

====

protein stability index values, listed per item
- Test system: Saccharomyces cerevisiae
- experimental_details: protein stability index of tFT-peptide fusion (C-terminal peptide) (PSI (0-1 scale)); higher = more stable (slower turnover)
- condition_notes: genetic background: wild type; temperature: 30 C
Returns: the value as a bare number; no unit string appended.

Please review the following examples before continuing.
CVGTDVWQASSR | 0.6
LGTILGWFSICT | 0.59
FPPPPTHPASSP | 0.691
ASGRARVIGVCR | 0.704
TVNHKHALQFAT | 0.681
VSVRGREGLDWK | 0.698
AYRISCAGHIMA | 0.684
CHILGSINKIKE | 0.7
AGSAGKWCWCGG | 0.711
LPFLPPPPPLRP | 0.694

input: Given the entry `PPLPPPRYLPPT` , report its measured protein stability index.
output: 0.712

input: Given the entry `FFYYPSFLPSPL` , report its measured protein stability index.
output: 0.685

input: Given the entry `RVVCFPAPLMPR` , report its measured protein stability index.
output: 0.705

input: Given the entry `GYARESERFGIH` , report its measured protein stability index.
output: 0.694

input: Given the entry `RPDTGPPRRNRE` , report its measured protein stability index.
output: 0.715

input: Given the entry `LLQQILKDYAEI` , report its measured protein stability index.
output: 0.686

input: Given the entry `LFCVSGSRPLTF` , report its measured protein stability index.
output: 0.714
